method: Example 2: estimation of baseline and Cmax for VSDL following infusion (blood samples, mass spectroscopy)
Assay type: in vivo, human
condition-description: human, blood, iv; 12 hrs following infusion; read-out: Concentration
No end group written: not given here.
experimental-endpoint: level at 12 h (ng/mL)
Number only, in ng/mL; omit the unit.

Qu. Using the record for EVVPPQVLSEPNEEAGAALSPLPEVPPWTGEVSPAQR [VSDL] , report its level at 12 h.
Ans. 0.042

----------
method: Example 2: estimation of baseline and Cmax for VSDL following infusion (blood samples, mass spectroscopy)
Assay type: in vivo, human
condition-description: human, blood, iv; 2 hrs following infusion; read-out: Concentration
No end group written: not given here.
experimental-endpoint: level at 2 h (ng/mL)
Number only, in ng/mL; omit the unit.

Qu. Using the record for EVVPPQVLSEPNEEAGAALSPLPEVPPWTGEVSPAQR [VSDL] , report its level at 2 h.
Ans. 0.58

----------
method: Example 2: estimation of baseline and Cmax for VSDL following infusion (blood samples, mass spectroscopy)
Assay type: in vivo, human
condition-description: human, blood, iv; 0.5 hrs following infusion; read-out: Concentration
No end group written: not given here.
experimental-endpoint: level at 0.5 h (ng/mL)
Number only, in ng/mL; omit the unit.

Qu. Using the record for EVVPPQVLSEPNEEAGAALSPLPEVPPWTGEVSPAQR [VSDL] , report its level at 0.5 h.
Ans. 4.4

----------
method: Example 2: estimation of baseline and Cmax for VSDL following infusion (blood samples, mass spectroscopy)
Format: in vivo, human
condition-description: human, blood, iv; 3 hrs following infusion; read-out: Concentration
No end group written: not given here.
experimental-endpoint: level at 3 h

Qu. Using the record for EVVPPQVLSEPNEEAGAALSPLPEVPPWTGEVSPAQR [VSDL] , report its level at 3 h.
Ans. 0.16 ng/mL

----------
method: Example 2: estimation of baseline and Cmax for VSDL following infusion (blood samples, mass spectroscopy)
Type: in vivo, human
condition-description: human, blood, intravenous; CHF patient (NYHA class III), following infusion
No end group written: not given here.
experimental-endpoint: Tmax (min)
Number only, in min; omit the unit.

Qu. Using the record for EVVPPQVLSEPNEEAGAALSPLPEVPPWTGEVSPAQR [VSDL] , report its Tmax.
Ans. 30

----------
method: Example 2: estimation of baseline and Cmax for VSDL following infusion (blood samples, mass spectroscopy)
Format: in vivo, human
condition-description: human, intravenous; CHF patient (NYHA class III), blood, following infusion; baseline-corrected
No end group written: not given here.
experimental-endpoint: Cmax (ng/mL)
Number only, in ng/mL; omit the unit.

Qu. Using the record for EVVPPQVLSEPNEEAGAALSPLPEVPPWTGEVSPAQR [VSDL] , report its Cmax.
Ans. 4.38

----------
method: Example 2: estimation of baseline and Cmax for VSDL following infusion (blood samples, mass spectroscopy)
Assay type: in vivo, human
condition-description: human, blood, iv; 1 hrs following infusion; read-out: Concentration
No end group written: not given here.
experimental-endpoint: level at 1 h (ng/mL)
Number only, in ng/mL; omit the unit.

Qu. Using the record for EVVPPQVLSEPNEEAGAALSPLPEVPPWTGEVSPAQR [VSDL] , report its level at 1 h.
Ans. 4.4

----------
method: Example 2: estimation of baseline and Cmax for VSDL following infusion (blood samples, mass spectroscopy)
Format: in vivo, human
condition-description: human, blood, iv; 1.5 hrs following infusion; read-out: Concentration
No end group written: not given here.
experimental-endpoint: level at 1.5 h (ng/mL)
Number only, in ng/mL; omit the unit.

Qu. Using the record for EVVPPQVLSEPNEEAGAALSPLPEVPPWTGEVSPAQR [VSDL] , report its level at 1.5 h.
Ans. 1.2

----------
method: Example 2: estimation of baseline and Cmax for VSDL following infusion (blood samples, mass spectroscopy)
Format: in vivo, human
condition-description: human, blood, intravenous, using the point just below the LOQ, excluding and including the Cmax values; read-out: estimated half-life (t1/2)
No end group written: not given here.
experimental-endpoint: half-life

Qu. Using the record for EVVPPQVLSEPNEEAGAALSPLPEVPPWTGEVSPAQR [VSDL] , report its half-life.
Ans. 25 to 30 min
